Where do the numbers come from? From patent US8063229B2.

test system: Candida parapsilosis; experiment: In vitro assay for antifungal activity (MIC80); type: cell-based; settings: Lodderomyces parapsilosis; concentration at which 80% inhibition of fungus growth occurs; RPMI 1640, alamarBlue, 24 hours, duplicate
Would you mind telling me the reported MIC80 of each entry?

Here are 3 compounds together with their reported answers.
compound	reported_endpoint	result
OC(Cn1cncn1)(Cn1cncn1)c1ccc(F)cc1F [Fluconazole, fluconazole, reference compound]	MIC80	> 32 µg/mL
C[C@@H](n1cc(/C=C/c2ccc(F)cc2)cn1)[C@](O)(Cn1cncn1)c1ccc(F)cc1F	MIC80	≤ 0.015 µg/mL
C[C@@H](n1cc(N2CCN(c3ccc(Cl)cc3)C2=O)cn1)[C@](O)(Cn1cncn1)c1ccc(F)cc1F	MIC80	0.125 µg/mL

// moving on: another record for MIC80
Give its MIC80 value. Item: C[C@@H](n1cc(CCc2ccc(Cl)cc2)cn1)[C@](O)(Cn1cncn1)c1ccc(F)cc1F
≤ 0.015 µg/mL
